Values were extracted from ChEMBL document CHEMBL4196008.

- SYSTEM NAME: ABCB1 (Homo sapiens, UniProt P08183)
- Sequence (P08183 whole entry): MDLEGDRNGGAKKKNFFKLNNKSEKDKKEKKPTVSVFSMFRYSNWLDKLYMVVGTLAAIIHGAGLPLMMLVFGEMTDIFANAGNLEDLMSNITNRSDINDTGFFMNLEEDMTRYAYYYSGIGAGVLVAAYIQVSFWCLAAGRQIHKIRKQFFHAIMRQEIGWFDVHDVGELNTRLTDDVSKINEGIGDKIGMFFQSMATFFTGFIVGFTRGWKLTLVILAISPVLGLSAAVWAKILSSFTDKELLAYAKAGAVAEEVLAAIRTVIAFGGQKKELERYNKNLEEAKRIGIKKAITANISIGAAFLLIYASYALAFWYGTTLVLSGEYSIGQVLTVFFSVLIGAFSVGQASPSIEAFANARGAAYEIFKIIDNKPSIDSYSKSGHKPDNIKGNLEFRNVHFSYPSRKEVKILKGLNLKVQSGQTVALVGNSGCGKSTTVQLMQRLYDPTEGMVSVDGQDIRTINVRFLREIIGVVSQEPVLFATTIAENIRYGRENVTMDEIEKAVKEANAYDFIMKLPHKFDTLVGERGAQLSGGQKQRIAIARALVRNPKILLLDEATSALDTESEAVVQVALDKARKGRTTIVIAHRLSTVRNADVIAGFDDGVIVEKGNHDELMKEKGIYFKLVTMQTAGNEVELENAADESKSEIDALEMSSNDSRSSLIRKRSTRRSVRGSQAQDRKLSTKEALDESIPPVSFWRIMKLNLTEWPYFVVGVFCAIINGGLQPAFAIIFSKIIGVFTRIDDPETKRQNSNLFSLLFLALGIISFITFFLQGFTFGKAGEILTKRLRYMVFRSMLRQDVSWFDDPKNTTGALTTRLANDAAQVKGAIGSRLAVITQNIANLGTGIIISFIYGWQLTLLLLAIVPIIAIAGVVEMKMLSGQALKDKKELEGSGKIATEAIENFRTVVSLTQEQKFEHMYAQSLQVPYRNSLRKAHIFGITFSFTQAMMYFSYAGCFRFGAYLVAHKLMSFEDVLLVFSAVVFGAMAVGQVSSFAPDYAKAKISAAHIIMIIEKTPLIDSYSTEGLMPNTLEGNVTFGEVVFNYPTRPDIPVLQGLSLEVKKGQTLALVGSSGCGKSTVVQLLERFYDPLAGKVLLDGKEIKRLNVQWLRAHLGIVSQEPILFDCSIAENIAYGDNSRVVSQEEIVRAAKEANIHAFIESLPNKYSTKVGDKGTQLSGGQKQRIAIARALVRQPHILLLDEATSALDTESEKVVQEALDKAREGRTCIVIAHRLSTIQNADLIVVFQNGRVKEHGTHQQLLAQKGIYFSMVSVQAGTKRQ
- ASSAY TEXT: Inhibition of ABCB1 in human A2780adr cells assessed as reduction in calcein AM levels at 10 uM preincubated for 30 mins followed by calcein AM addition measured immediately at 60 sec time interval for 60 mins by fluorescence assay relative to control
- Type: cell-based
- MEASUREMENT CONDITIONS: probe calcein AM
RECORDED METRIC: inhibition at 1 h, 10 µM (%)
Give just the number in %; leave the unit off.

Quick one: inhibition at 1 h, 10 µM of "O=C(Nc1ccccc1-c1nnn(-c2ccccc2)n1)C12CC3CC(CC(C3)C1)C2" ?
51
